- STUDY_TARGET: ARAF (Homo sapiens)
- Sequence (P10398 1-606): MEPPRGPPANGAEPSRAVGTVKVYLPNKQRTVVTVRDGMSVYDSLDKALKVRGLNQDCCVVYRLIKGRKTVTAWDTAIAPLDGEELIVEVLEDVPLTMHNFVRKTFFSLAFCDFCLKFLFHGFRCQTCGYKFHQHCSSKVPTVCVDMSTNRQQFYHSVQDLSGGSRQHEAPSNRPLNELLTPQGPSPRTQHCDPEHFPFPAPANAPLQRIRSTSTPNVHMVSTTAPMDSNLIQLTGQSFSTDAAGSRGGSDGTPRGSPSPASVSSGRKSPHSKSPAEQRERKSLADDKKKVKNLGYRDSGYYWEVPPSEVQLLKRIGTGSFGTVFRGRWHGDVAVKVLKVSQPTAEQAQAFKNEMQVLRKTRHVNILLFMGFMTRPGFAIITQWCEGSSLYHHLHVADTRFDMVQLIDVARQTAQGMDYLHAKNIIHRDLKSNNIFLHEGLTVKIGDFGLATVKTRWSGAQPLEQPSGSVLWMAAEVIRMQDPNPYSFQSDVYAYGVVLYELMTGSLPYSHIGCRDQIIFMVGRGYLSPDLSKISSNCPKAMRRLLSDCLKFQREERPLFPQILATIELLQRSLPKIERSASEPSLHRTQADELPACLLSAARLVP
pIC50: −log10 of the molar value.
PARAMETER: pIC50

[
  {
    "MOLECULE": "O=C(Nc1cc(Nc2ncccc2-c2ncnc3[nH]cnc23)ccc1F)c1cc(C(F)(F)F)cc(C(F)(F)F)c1 [SJ-C1044]",
    "STUDY_TARGET": "ARAF (Homo sapiens)",
    "RESULT": "< 5.00"
  }
]
